# Test system: IGROV1 ovarian
# Experimental Details: NCI-60 one-dose screen, 48 h
# Condition Description: 10 µM unless noted
# Protocol: Growth inhibition of the IGROV1 human tumor cell line is measured as a screen for anti-cancer activity. Cells are grown in 96 well plates and exposed to the test compound for 48 hours. Compounds are tested at a single concentration, which is 10^-5 M for most compounds. The reported endpoint is percent growth (GI% or GIPRCNT), where numbers from 0 - 100% represent growth inhibition, and numbers from -100% - 0 represent cell death. For example, a value of 40 represents 60% growth inhibition. […]
About 83,000 compounds went through this panel and 20% of them were active in at least one assay; those are over-represented in the sample as a whole. Active and inactive are the calls of the source. How the source made its calls: active means growth percent below 10; inactive means the rest.
Could you please pick one outcome from this set? active, inactive

## Input Answer briefly: the call reported for `C=C[C@@]1(C)CC(=O)[C@@H](C(C)(C)c2cn(C)c3ccc(Br)cc23)C[C@@H]1O[Si](C)(C)C(C)(C)C` in this assay.
## Output inactive

## Input // query: `Cc1ccc2c(c1)=C/C(=C\c1cc(-c3ccccc3)[nH]c1O)C(=O)N=2`
## Output inactive

## Input // same read-out, input: `Nc1nc(C(=O)N/N=C/c2ccc(F)cc2)nn1-c1ccc(S(N)(=O)=O)cc1`
## Output inactive

## Input Try this compound too: `CCCc1cc(=O)oc2c(C(=O)CC(C)C)c(O)c(CC=C(C)C)c(O)c12`
## Output inactive

## Input # repeat for `CCN(CC)CCOc1ccc(/C(=C(\C)Cc2ccc(OC)cc2)c2ccc(OC(=O)NCc3ccccc3)cc2)cc1`
## Output inactive

## Input Same thing, different compound: `O=C1C=C(SCCO)C(=O)c2ccccc21`
## Output inactive

## Input Now consider O=C(CN1C(=O)S/C(=C\C(Cl)=C\c2ccccc2)C1=O)NC1CCS(=O)(=O)C1 (centres undefined) and answer again.
## Output inactive

## Input Next compound: CC1(/C=C/c2ccc(-c3ccccc3)cc2)CCn2cnc3ncnc(c32)N1O (centres undefined)
## Output inactive

## Input Next up: `C#COc1cccc(Nc2ncnc3cc(NC(=O)[C@H](C)Cl)ccc23)c1`
## Output active

====

# System: SF-295 CNS
# Experimental Details: NCI-60 one-dose screen, 48 h (100 = growth as untreated, 0 = no growth, -100 = all killed)
# Condition Description: 10 µM unless noted
This is part of a sample that, as a whole, favours compounds with a hit. Of some 83,000 tested, about 20% had one in any assay.
Listed here are compounds together with their documented growth.
API: value field is a number in %; no unit string.

Illustrative cases are given below, each with its answer.
{"Compound": "COC(=O)/C=C1/SC(=Nc2ccc(F)cc2)N(CCc2c[nH]c3ccc(O)cc23)C1=O", "growth, %": 61.5}
{"Compound": "CCN1C(=O)N(CC)C2C1NN=c1s/c(=C\\c3ccc(OC)cc3)c(=O)n12 (stereo not given)", "growth, %": 13.2}
{"Compound": "CC(C)(C)c1ccc(S(=O)(=O)Oc2ccc(-c3sc4cc(OS(=O)(=O)c5ccc(C(C)(C)C)cc5)ccc4c3C(=O)c3ccc(OCCN4CCCCC4)cc3)cc2)cc1", "growth, %": 94.5}
{"Compound": "Cc1cccc(N=Nc2cccc(C)c2)c1", "growth, %": 97.9}
{"Compound": "S=c1ccnc[nH]1", "growth, %": 115}

## Input Value lookup for growth; key = `CS(=O)(=O)Nc1cc(-c2ccc3ncnc(Nc4ccc(F)c(Cl)c4)c3c2)ccc1Cl`
## Output 15.6

## Input `O=C(C1=Cc2cc3ccccc3n2Cc2cnnn21)c1ccc(F)cc1` ?
## Output 97.8

## Input For `C=C(C)[C@@H]1CC[C@]2(CO)CC[C@]3(C)[C@H](CC[C@@H]4[C@@](C)(CCCN)[C@H](C(=C)C)CC[C@]43C)[C@@H]12` then?
## Output -75.5

## Input Try the compound `CCOC(=O)c1[nH]cc2c1CCc1sc(Nc3ccccn3)nc1-2`
## Output 86.5

## Input Can you handle `ClC(Cl)c1nc(-c2ccccc2)n2nc(-c3ccccc3)cc2n1` next?
## Output -13.1

## Input And `CN(C)CCC(=O)C1CC1` ?
## Output 116

## Input Here is the next compound: `O=C(/C=C/c1ccccc1)c1ccc(-n2cc(CN3CCN(c4cc5c(cc4F)c(=O)c(C(=O)O)cn5C4CC4)CC3)nn2)cc1`
## Output 91.7

## Input Repeat for the following compound: `O=S(=O)(NCCNc1nccc(-c2c(-c3ccc(F)c(O)c3)nc3sccn23)n1)c1ccc(Cl)cc1`
## Output 29.5

## Input Same again, this time with `CN(C)Cc1cc(C(C)(C)C)cc(Br)c1O`
## Output 97.3

## Input Next record, please: `C[C@@H]1CN(c2cnc(C(=O)Nc3cc(F)cc4cccnc34)cn2)C[C@H](C)N1`
## Output 101

## Input // same read-out, input: CCOC(=O)CC1CSC(N/N=C/c2ccc(F)c(Br)c2)=N1 (stereo not given)
## Output 96.8

Hello, the source for this data is PubChem BioAssay (NCI), in case you need it.
